ASSAY REMARKS: Kinetic solubility of HME ASDs in FaSSIF at 37° C.
Format: physicochemical
CONDITION DESCRIPTION: thermodynamic from solid, without sieving, 15 min, read-out: Solubility (μg/mL) 15 min
PROPERTY MEASURED: solubility at 15 min (µg/mL)
The figure you give is taken to be in µg/mL; do not add the unit.

solubility at 15 min measured on `O=[N+]([O-])c1cn2c(n1)OC[C@@H](OCc1ccc(OC(F)(F)F)cc1)C2` = 37.2

---

ASSAY REMARKS: Supersaturated solubility measurement in FaSSIF with 2% DMSO
Type: physicochemical
CONDITION DESCRIPTION: fassif, kinetic from dmso stock, target conc. 205.60 μg/mL, read-out: Measured conc.(μg/mL)
PROPERTY MEASURED: solubility kinetic at 16 min (µg/mL)
Respond numerically; units are µg/mL and should not be typed.

According to the records, this compound O=[N+]([O-])c1cn2c(n1)OC[C@@H](OCc1ccc(OC(F)(F)F)cc1)C2 [PA-824] displays solubility kinetic at 16 min of 30.8
